Each item that follows carries a reported IC50.
system.under.test: T1, KDR (1-3) (UniProt P35968 20-327, limits assumed)
T1 construct: domain: KDR (1-3); Soluble KDR (1-3) at 1 ug/ml, captured on the plate by anti-KDR monoclonal antibody MAKD5; also called KDR (1-3) monomer
test.summary: competition ELISA, biotinylated native VEGF (8-109) as tracer, KDR (1-3) captured by mAb MAKD5

Below, each entry is followed by its recorded IC50 result.
LK-VRB-7s* (ligand) APMAEGGGQNHHEVVKFEDVYQRSYCHPIETLVDIFQEYPDEIEYIFKPSCVPLMRCGGCCNSEMRECVPTEESNITMQIMRIKPHQGQHIGEMSFLQHNKCECRPKKD = 1 nM
LK-VRB-3s (ligand) APMAEGGGQNHHEVVKIEDVFKRSSCHPIETLVDIFQEYPDEIEYIFKPSCVPLMRCGGCCNDEGLECVPTEESNITMQIMRIKPHQGQHIGEMSFLQHNKCECRPKKD = 1 nM
LK-VRB-8s* (ligand) APMAEGGGQNHHEVVKFMDVLQRSYCHPIETLVDIFQEYPDEIEYIFKPSCVPLMRCGGCCNSEMRECVPTEESNITMQIMRIKPHQGQHIGEMSFLQHNKCECRPKKD = 0.5 nM

Attention now turns to another entry.
// returns reported IC50 for input LK-VRB-26s (ligand) APMAEGGGQNHHEVVKFEDVLRRSSCHPIETLVDIFQEYPDEIEYIFKPSCVPLMRCGGCCNDEMRECVPTEESNITMQIMRIKPHQGQHIGEMSFLQHNKCECRPKKD 23 nM
